Where do the numbers come from? From patent US20210238262A1.

target: T1, Recombinant DENV-2 sE (1-396) from strain 16681-PDK53 with C-terminal AviTag and poly-histidine tags (Dengue virus serotype 2 strain …, UniProt P29991 281-676, biotinylated on the AviTag for BLI); experiment: BLI and ELISA on DENV-2 E glycoprotein
T1 construct: Produced in Expi293F cells; biotinylated for BLI; also called DENV-2 E
Readout label: binding result

>>> measured_result("rhMZ101-B (antibody, V domains shown) VH: EVQLVESGGGLAKPGGSLRLSCAASGFSFSDYYMYWVRQAPGKGLEWVSGISYTGGSTYYADSVKGRFTISRENAKNTLYLQMDSLRAEDTAVYYCARVLYSGSYYYFDYWGQGVLVTVSS VL: QSVLTQPPSLSASPGASARLPCTLSSDLSVGSKNMYWYQQKPGSAPRLFLYYYSDSDKQLGPGVPNRVSGSKETSSNTAFLVISGLQPEDEADYYCQVYDSSANIVFGSGTKLTVLG")
"no binding"
>>> measured_result("rhMZ123-A (antibody, V domains shown) VH: QLVQSGAEVKRPGESLRISCKTSGYSFTSYWISWVRQMPGKGLEWMGMIYPGDSDTRYSPSFQGQVTISADKSISTAYLQWSSLKASDTATYYCAKVDSSGWTNYFDYWGQGVLVTVSS VL: QSALTQPPSVSKSLGQSVTISCTGTSSDIGGYNGVSWYQQHSGTAPRLLIYDVSKRPSGVSDRFSGSKSGNTASLTISGLQAEDEADYYCCSYRSGSTYIFGAGTRLTVLG")
"no binding"
>>> measured_result("rhMZ134-B (antibody, V domains shown) VH: EVQLVESGGGLAKPGGSLRLSCAASGFTFSDYYMDWVRQAPGKGLEWVSRISNGGGSTWYADSVKGRFTISRENAKNTLYLQMNSLRAEDTAVYYCARGPEYCSSTYCSSAYCTGSGCYVDYGLDSWGQGVVVTVSS VL: SYELTQPPSVSVSPGQMARITCGGDNIGSKNVQWYQQKPAQAPVLVIYADSERPSGIPERFSGSNSGNTATLTISGVEAGDEADYYCQVWDSSSDHVLFGGGTRLTVLG")
"no binding"
